# study system: T1, GST-Pirh2_(15-195) (human, UniProt Q96PM5 15-195)
# T1 sequence: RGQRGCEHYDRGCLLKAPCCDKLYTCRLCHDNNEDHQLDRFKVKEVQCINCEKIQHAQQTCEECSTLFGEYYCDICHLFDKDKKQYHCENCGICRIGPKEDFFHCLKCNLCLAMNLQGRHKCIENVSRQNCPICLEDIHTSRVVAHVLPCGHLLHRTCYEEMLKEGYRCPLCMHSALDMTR
# method description: AlphaScreen or HTRF
Reported IC50 by item:

[
  {
    "binder": "MDELYKAAAA",
    "IC50": "~2000 nM"
  },
  {
    "binder": "MDELYKGAAAAA",
    "IC50": "~60 nM"
  },
  {
    "binder": "MDELYKAAAAAD",
    "IC50": "~26000 nM"
  },
  {
    "binder": "MDELYKAAAAAA [MDELYKAAAAAA (Ala-tail peptide, non-biotinylated)]",
    "IC50": "50 to 120 nM"
  },
  {
    "binder": "MDELYKAAAAAG",
    "IC50": "~2000 nM"
  },
  {
    "binder": "MDELYKLAAAAA",
    "IC50": "~60 nM"
  },
  {
    "binder": "MDELYKAAAAA",
    "IC50": "~50 nM"
  }
]
